- STUDY SYSTEM: T1, HLA-B*07:02 (human)
- T1 construct: Peptide-receptive MHC class I monomer made by UV cleavage of a UV-sensitive ligand
- EXPERIMENTAL DETAILS: UV ligand exchange ELISA; exchange yield grade
Property: peptide exchange yield; scope: individual binders
MEASURED PROPERTY: peptide exchange yield

SPRITFPSL    > 75%
APSKTSLIM    20 to 50%
FPETVNNLL    20 to 50%
SPRAINNLVL    > 75%
SPVPSHWMVA    50 to 75%
KPLFKVSTF    20 to 50%
LPYDSKHQI    20 to 50%
SPSLPSRTL    20 to 50%
LPFGKIPIL    20 to 50%
SPKESENAL    20 to 50%
MPDPHLYHQM    20 to 50%
VPNLQTVSV    20 to 50%
SPLGSLARSSL    > 75%
SPKLQIAAM    50 to 75%
IPVSHPVL    20 to 50%
APFGFLGMQSL    50 to 75%

The reported numbers originate from patent US20180291083A1.
